experiment: solvent given as SMILES; conditions: in CC#N

[
  {
    "molecule": "N#Cc1ccc(-n2nc(C#N)c(N3CCCC3)n2)cc1",
    "absorption maximum, nm": 362
  },
  {
    "molecule": "CCN(CC)c1ccc([N+]2=Cc3ccc4c5c(ccc4c3O[B-]2(c2c(F)c(F)c(F)c(F)c2F)c2c(F)c(F)c(F)c(F)c2F)C=[N+](c2ccc(N(CC)CC)cc2)[B-](c2c(F)c(F)c(F)c(F)c2F)(c2c(F)c(F)c(F)c(F)c2F)O5)cc1",
    "absorption maximum, nm": 555
  },
  {
    "molecule": "N#Cc1ccc(C#Cc2ccc(C#Cc3ccc(C#Cc4ccccc4C#N)cc3C#N)cc2C#N)cc1",
    "absorption maximum, nm": 352
  },
  {
    "molecule": "O=c1c2ccccc2n2c3ccccc3c(=O)c3cc(-c4ccccc4)cc1c32",
    "absorption maximum, nm": 447
  },
  {
    "molecule": "COc1nc(Nc2ccc3cc4ccccc4cc3c2)nc(OC)n1",
    "absorption maximum, nm": 395
  },
  {
    "molecule": "O=c1c2ccccc2nc2n1[B-](F)(F)[n+]1ccccc1-2",
    "absorption maximum, nm": 334
  },
  {
    "molecule": "CC(O)CC1=N/C(=C\\c2cccc(N(C)C)c2)C(=O)N1C (stereo not drawn)",
    "absorption maximum, nm": 355
  },
  {
    "molecule": "C(=C\\c1cnccn1)/c1ccc(N(c2ccccc2)c2ccccc2)cc1",
    "absorption maximum, nm": 391
  },
  {
    "molecule": "CC(=O)Nc1ccc2c3cccc4cccc(c5cccc1c52)c43",
    "absorption maximum, nm": 441
  },
  {
    "molecule": "CN(C)c1ncc2nc(C#N)n(Cc3ccccc3)c2n1",
    "absorption maximum, nm": 357
  },
  {
    "molecule": "Cc1ccc(-c2cc(-c3ccccc3)c(C#N)c(=S)[nH]2)cc1",
    "absorption maximum, nm": 430
  },
  {
    "molecule": "CN(C)c1ccc(C2=Nc3sc4c(F)c(F)c(F)c(F)c4[n+]3[B-](F)(F)O2)cc1",
    "absorption maximum, nm": 431
  },
  {
    "molecule": "CCOC(=O)c1c2c3c(ccc(C)c3c3cc4ccccc4cc13)N(C)C2=O",
    "absorption maximum, nm": 404
  },
  {
    "molecule": "COc1ccc2c(c1)CCc1c-2nc(N)c(C#N)c1-c1ccc(Br)cc1",
    "absorption maximum, nm": 364
  },
  {
    "molecule": "COc1ccc(C#Cc2ccc(C#Cc3ccc(C#Cc4ccccc4C#N)cc3C#N)cc2C#N)cc1",
    "absorption maximum, nm": 364
  },
  {
    "molecule": "CCOC(=O)/C(C#N)=C/c1cc2c3ccccc3n(C)c2cc1OC",
    "absorption maximum, nm": 410
  },
  {
    "molecule": "c1ccc(Nc2nc(Nc3ccccc3)nc(Nc3ccc4ccc5cccc6ccc3c4c56)n2)cc1",
    "absorption maximum, nm": 342
  },
  {
    "molecule": "C(=C\\c1ccc2ccccc2c1)/c1ccc(N(c2ccccc2)c2ccccc2)cc1",
    "absorption maximum, nm": 371
  },
  {
    "molecule": "N#Cc1nn(-c2cc(F)cc(F)c2)nc1N1CCCC1",
    "absorption maximum, nm": 350
  },
  {
    "molecule": "c1ccc(-c2nc(-c3ccc(-c4ccc(-n5c6ccccc6c6ccccc65)cc4)cn3)oc2-c2ccccc2)cc1",
    "absorption maximum, nm": 330
  },
  {
    "molecule": "CC1=N/C(=C\\c2ccccc2N(C)C)C(=O)N1C",
    "absorption maximum, nm": 396
  },
  {
    "molecule": "O=C(N/N=C/c1ccccc1O)c1cccc2ccccc12",
    "absorption maximum, nm": 332
  },
  {
    "molecule": "COc1c2ccccc2c(OC)c2c1c1ccc(C)cc1n2C",
    "absorption maximum, nm": 404
  },
  {
    "molecule": "Fc1nc(F)c(F)c(C#Cc2nccnc2C#Cc2c(F)c(F)nc(F)c2F)c1F",
    "absorption maximum, nm": 305
  },
  {
    "molecule": "Nc1nc2ccc(F)cc2[n+]([O-])n1",
    "absorption maximum, nm": 415
  },
  {
    "molecule": "CN(C)c1ccc(-c2nc3cccnc3[nH]2)cc1",
    "absorption maximum, nm": 346
  },
  {
    "molecule": "CN(C)c1ccc(C2=Nc3sc4cc(Cl)ccc4[n+]3[B-](F)(F)O2)cc1",
    "absorption maximum, nm": 426
  },
  {
    "molecule": "COc1ccc2c(c1)sc1[n+]2[B-](F)(F)OC(c2ccc(N(C)C)cc2)=N1",
    "absorption maximum, nm": 426
  }
]
